Tested on: SUP-B15 (B-Lymphoblastic Leukemia)
Assay: Bliss excess, mean over the matrix (fraction); higher = more synergy
Reported Bliss excess is given for each of the following molecules.
Lab note: jot down the number only; don't add units.

Specify Bliss excess for Cc1c2c(nn1C)CSCc1cc(n(C)n1)CSc1cc(c3ccccc3c1)OCCCc1c(C(=O)O)n(C)c3c-2c(Cl)ccc13 [AZD5991] + CN(C)CCCOc1ccc(-c2ccc3ncc4c(c3c2)n(C2CCOCC2)c(=O)n4C)cn1 [AZD0156] (first compound max 1 µM, 7x7, partner max 1 µM) and stop. -0.0117

# return recorded Bliss excess for entry COc1cccc(OCCCN)c1-c1cc(Nc2cnc(C#N)cn2)n[nH]1 [Prexasertib] + CN(C)CCCOc1ccc(-c2ccc3ncc4c(c3c2)n(C2CCOCC2)c(=O)n4C)cn1 [AZD0156] (first compound max 1 µM, 7x7, partner max 1 µM) -0.0513

Using known records, supply Bliss excess for CC(=O)Nc1cccc(-n2c(=O)n(C3CC3)c(=O)c3c(Nc4ccc(I)cc4F)n(C)c(=O)c(C)c32)c1 [Trametinib] + Cc1nc(-c2cn3c(n2)-c2ccc(-c4cnn(C(C)(C)C(N)=O)c4)cc2OCC3)n(C(C)C)n1 [Taselisib] (first compound max 1 µM, 7x7, partner max 10 µM) 0.539

###

Test system: NCI-H661 (Non-Small Cell Lung Carcinoma)
Assay: Bliss excess, mean over the matrix (fraction); higher = more synergy
Recorded Bliss excess, one value per entry.
Could you respond with only the numeric value?

Below are worked cases with known answers.
Compound	Target Of Assay	Measured Value
NC1(C(=O)N[C@@H](CCO)c2ccc(Cl)cc2)CCN(c2ncnc3[nH]ccc23)CC1 [Capivasertib] + CC(=O)c1c(C)c2cnc(Nc3ccc(N4CCNCC4)cn3)nc2n(C2CCCC2)c1=O [Palbociclib] (first compound max 10 µM, 7x7, partner max 10 µM)	NCI-H661 (Non-Small Cell Lung Carcinoma)	0.0204
C[C@@H]1COCCN1c1cc(C2([S@](C)(=N)=O)CC2)nc(-c2ccnc3[nH]ccc23)n1 [AZD6738] + O=C(c1cc(Cc2n[nH]c(=O)c3ccccc23)ccc1F)N1CCN(C(=O)C2CC2)CC1 [Olaparib] (first compound max 10 µM, 7x7, partner max 10 µM)	NCI-H661 (Non-Small Cell Lung Carcinoma)	0.039
CN(C)CCCOc1ccc(-c2ccc3ncc4c(c3c2)n(C2CCOCC2)c(=O)n4C)cn1 [AZD0156] + C=CCn1c(=O)c2cnc(Nc3ccc(N4CCN(C)CC4)cc3)nc2n1-c1cccc(C(C)(C)O)n1 [AZD1775] (first compound max 1 µM, partner max 1 µM)	NCI-H661 (Non-Small Cell Lung Carcinoma)	-0.0615

// moving on: another record for Bliss excess
Return Bliss excess for the following compound: CN(C)CCCOc1ccc(-c2ccc3ncc4c(c3c2)n(C2CCOCC2)c(=O)n4C)cn1 [AZD0156] + CCN(CCO)CCCOc1ccc2c(Nc3cc(CC(=O)Nc4cccc(F)c4)[nH]n3)ncnc2c1 [AZD2811] (first compound max 1 µM, 7x7, partner max 1 µM) -0.0304

###

# combination Emax annotations
Tested on: ESO51 (Esophageal Adenocarcinoma)
Experiment: combination Emax (second highest fraction inhibited in the dose matrix, 72 h); higher = more inhibition; extreme values may be limits of the assay
Reply: number alone, nothing else.

Please give measured combination Emax of the following entry: Cc1cc2ncnn2cc1Nc1ncc2c(n1)n(C1CCOCC1)c(=O)n2C [AZD7648] + CCN(CCO)CCCOc1ccc2c(Nc3cc(CC(=O)Nc4cccc(F)c4)[nH]n3)ncnc2c1 [AZD2811] (first compound max 10 µM, 7x7, partner max 1 µM) 0.227

Return value of combination Emax for input COc1nnc2ccc(N3CCC(c4ccc(OCCN5CCN(C)C(=O)[C@H]5C)cc4)CC3)nn12 [AZD5153] + Cn1cnc2c(F)c(Nc3ccc(Br)cc3Cl)c(C(=O)NOCCO)cc21 [Selumetinib] (first compound max 1 µM, 7x7, partner max 10 µM) , no commentary. 0.901

Annotate the compound C[C@@H](c1ccc2nccn2c1)n1nnc2ncc(-c3cnn(C)c3)nc21 [Savolitinib] + Cc1c2c(nn1C)CSCc1cc(n(C)n1)CSc1cc(c3ccccc3c1)OCCCc1c(C(=O)O)n(C)c3c-2c(Cl)ccc13 [AZD5991] (first compound max 1 µM, 7x7, partner max 1 µM) with its measured combination Emax. 0.977

Read the entry CC(=O)c1c(C)c2cnc(Nc3ccc(N4CCNCC4)cn3)nc2n(C2CCCC2)c1=O [Palbociclib] + Cc1c2c(nn1C)CSCc1cc(n(C)n1)CSc1cc(c3ccccc3c1)OCCCc1c(C(=O)O)n(C)c3c-2c(Cl)ccc13 [AZD5991] (first compound max 10 µM, 7x7, partner max 1 µM) and write its reported combination Emax. 0.218

###

Test system: ST486 (Burkitt's Lymphoma)
Assay: Bliss excess, mean over the matrix (fraction); higher = more synergy
Listing: Bliss excess of selected compounds
Would you mind answering with just the numeric figure?

Compound	Measured Value
NC1(C(=O)N[C@@H](CCO)c2ccc(Cl)cc2)CCN(c2ncnc3[nH]ccc23)CC1 [Capivasertib] + CCN(CCO)CCCOc1ccc2c(Nc3cc(CC(=O)Nc4cccc(F)c4)[nH]n3)ncnc2c1 [AZD2811] (first compound max 10 µM, 7x7, partner max 1 µM)	-0.0396

State its Bliss excess for this compound: CS(=O)(=O)CCNCc1ccc(-c2ccc3ncnc(Nc4ccc(OCc5cccc(F)c5)c(Cl)c4)c3c2)o1 [Lapatinib] + Cn1cnc2c(F)c(Nc3ccc(Br)cc3Cl)c(C(=O)NOCCO)cc21 [Selumetinib] (first compound max 10 µM, 7x7, partner max 10 µM) 0.0111

###

Tested on: SK-GT-4 (Esophageal Adenocarcinoma)
Assay: Bliss excess, mean over the matrix (fraction); higher = more synergy
Reported Metric: Bliss excess
Write the value as a bare number.

// below: answered molecules
Molecule	Bliss excess
Cc1c2c(nn1C)CSCc1cc(n(C)n1)CSc1cc(c3ccccc3c1)OCCCc1c(C(=O)O)n(C)c3c-2c(Cl)ccc13 [AZD5991] + CS(=O)(=O)CCNCc1ccc(-c2ccc3ncnc(Nc4ccc(OCc5cccc(F)c5)c(Cl)c4)c3c2)o1 [Lapatinib] (first compound max 1 µM, 7x7, partner max 10 µM)	0.0391
Cc1c2c(nn1C)CSCc1cc(n(C)n1)CSc1cc(c3ccccc3c1)OCCCc1c(C(=O)O)n(C)c3c-2c(Cl)ccc13 [AZD5991] + Nc1ccn([C@@H]2O[C@H](CO)[C@@H](O)C2(F)F)c(=O)n1 [Gemcitabine] (first compound max 1 µM, 7x7, partner max 0.3 µM)	-0.042
O=C(c1cc(Cc2n[nH]c(=O)c3ccccc23)ccc1F)N1CCN(C(=O)C2CC2)CC1 [Olaparib] + CC1(C)CCC(CN2CCN(c3ccc(C(=O)NS(=O)(=O)c4ccc(NCC5CCOCC5)c([N+](=O)[O-])c4)c(Oc4cnc5[nH]ccc5c4)c3)CC2)=C(c2ccc(Cl)cc2)C1 [Venetoclax] (first compound max 10 µM, 7x7, partner max 1 µM)	-0.056
Cc1c2c(nn1C)CSCc1cc(n(C)n1)CSc1cc(c3ccccc3c1)OCCCc1c(C(=O)O)n(C)c3c-2c(Cl)ccc13 [AZD5991] + C[C@@H]1COCCN1C2=NC(=NC(=C2)C3(CC3)[S@](=N)(=O)C)C4=C5C=CNC5=NC=C4 [AZD6738] (first compound max 1 µM, 7x7, partner max 10 µM)	-0.0038
COc1cc2c(cc1OCCCCCOc1cc3c(cc1OC)C(=O)N1C=C(C)C[C@H]1C=N3)N=C[C@@H]1CC(C)=CN1C2=O [SG3199] + O=C(c1cc(Cc2n[nH]c(=O)c3ccccc23)ccc1F)N1CCN(C(=O)C2CC2)CC1 [Olaparib] (first compound max 0.001 µM, 7x7, partner max 10 µM)	-0.0661
Cn1cnc2c(F)c(Nc3ccc(Br)cc3Cl)c(C(=O)NOCCO)cc21 [Selumetinib] + CCN(CCO)CCCOc1ccc2c(Nc3cc(CC(=O)Nc4cccc(F)c4)[nH]n3)ncnc2c1 [AZD2811] (first compound max 10 µM, 7x7, partner max 1 µM)	-0.0533

Let's switch to this molecule now.
Output reported Bliss excess of the molecule N#Cc1cnc(Nc2cc(NC[C@H]3CNCCO3)c(C(F)(F)F)cn2)cn1 [SRA737] + C=CCn1c(=O)c2cnc(Nc3ccc(N4CCN(C)CC4)cc3)nc2n1-c1cccc(C(C)(C)O)n1 [AZD1775] (first compound max 10 µM, partner max 1 µM) on SK-GT-4 (Esophageal Adenocarcinoma). 0.003

###

System: MOLM-13 (Acute Myeloid Leukemia)
Experiment: combination Emax (second highest fraction inhibited in the dose matrix, 72 h); higher = more inhibition; extreme values may be limits of the assay
combination Emax reference
Keep the answer to the number alone.

Study these solved cases before continuing.
Compound	combination Emax
Cc1cc2ncnn2cc1Nc1ncc2c(n1)n(C1CCOCC1)c(=O)n2C [AZD7648] + C[C@@H]1COCCN1C2=NC(=NC(=C2)C3(CC3)[S@](=N)(=O)C)C4=C5C=CNC5=NC=C4 [AZD6738] (first compound max 10 µM, 7x7, partner max 10 µM)	0.998
CN(C)CCCOc1ccc(-c2ccc3ncc4c(c3c2)n(C2CCOCC2)c(=O)n4C)cn1 [AZD0156] + C=CCn1c(=O)c2cnc(Nc3ccc(N4CCN(C)CC4)cc3)nc2n1-c1cccc(C(C)(C)O)n1 [AZD1775] (first compound max 1 µM, partner max 1 µM)	0.985
CN(CCO)CC[C@H](CSc1ccccc1)Nc1ccc(S(=O)(=O)NC(=O)c2ccc(N3CCC([C@@H](O)c4ccccc4-c4ccc(Cl)cc4)CC3)cc2)cc1S(=O)(=O)C(F)(F)F [AZD4320] + Cc1cc2ncnn2cc1Nc1ncc2c(n1)n(C1CCOCC1)c(=O)n2C [AZD7648] (first compound max 1 µM, 7x7, partner max 10 µM)	1
CC(=O)c1c(C)c2cnc(Nc3ccc(N4CCNCC4)cn3)nc2n(C2CCCC2)c1=O [Palbociclib] + CC1(C)CCC(CN2CCN(c3ccc(C(=O)NS(=O)(=O)c4ccc(NCC5CCOCC5)c([N+](=O)[O-])c4)c(Oc4cnc5[nH]ccc5c4)c3)CC2)=C(c2ccc(Cl)cc2)C1 [Venetoclax] (first compound max 10 µM, 7x7, partner max 1 µM)	1
COc1cccc(OCCCN)c1-c1cc(Nc2cnc(C#N)cn2)n[nH]1 [Prexasertib] + C=CCn1c(=O)c2cnc(Nc3ccc(N4CCN(C)CC4)cc3)nc2n1-c1cccc(C(C)(C)O)n1 [AZD1775] (first compound max 1 µM, partner max 1 µM)	1
C=CCn1c(=O)c2cnc(Nc3ccc(N4CCN(C)CC4)cc3)nc2n1-c1cccc(C(C)(C)O)n1 [AZD1775] + C[C@@H]1COCCN1C2=NC(=NC(=C2)C3(CC3)[S@](=N)(=O)C)C4=C5C=CNC5=NC=C4 [AZD6738] (first compound max 1 µM, partner max 10 µM)	0.999

Now for the compound whose combination Emax we want.
Please list combination Emax recorded for the compound CCN(CCO)CCCOc1ccc2c(Nc3cc(CC(=O)Nc4cccc(F)c4)[nH]n3)ncnc2c1 [AZD2811] + O=C(c1cc(Cc2n[nH]c(=O)c3ccccc23)ccc1F)N1CCN(C(=O)C2CC2)CC1 [Olaparib] (first compound max 1 µM, 7x7, partner max 10 µM) 1

Hello, the source for this data is the supplement of paper PMC11061612, in case you need it.
